- Tested on: ATP;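 note: ATP exposure 15 min at 22 °C before imaging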
- METHOD SUMMARY: switch fluorescence ratio, 500 uM ATP over buffer (Cy3 cluster intensity, sum of 5 cycles each) (fold (ratio)); higher = stronger signal-on switching upon ATP binding; sequences stand for … in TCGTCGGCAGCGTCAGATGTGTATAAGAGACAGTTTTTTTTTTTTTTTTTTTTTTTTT…TC
- CONDITION NOTES: aptamer strand: ATP DNA aptamer (quencher-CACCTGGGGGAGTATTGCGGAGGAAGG + anchor), 100 nM annealed; ATP concentration: 500 uM
READOUT LABEL: switch fluorescence ratio
Give your answer as a number; write no unit.

I have this sequence here, ACTGGGGGTG , and I need its recorded switch fluorescence ratio.
1.07

What value of switch fluorescence ratio has been recorded for this entry: AGGTCGAATT
1

State the recorded switch fluorescence ratio for this entry: GGGTACCGTA
0.959

Requested read-out: switch fluorescence ratio. Entry: GAAGGCTAAT
0.974

Any idea what switch fluorescence ratio was measured for TAGGGGCCTA ?
0.995

I am curious: what switch fluorescence ratio value has been reported for AATATTATTA ?
1.02

Looking for the measured switch fluorescence ratio of TTTTAGAAA , can you help?
1.02

Field request: switch fluorescence ratio | item: GCTGCAGGGG
1.14

Can you look up the measured switch fluorescence ratio of TGGAGGGGGA for me?
0.999

What does the data say about its switch fluorescence ratio? Entry: ATCGATATTG
0.991

Consider the sequence shown here: TTTGGGCCTC What is its recorded switch fluorescence ratio?
0.984

Recorded switch fluorescence ratio for TCATTCCATT , please?
0.988

Request the reported switch fluorescence ratio associated with TTGCTCTCTG
1.03

Reported switch fluorescence ratio for GCCAGTTTGC : what is it?
0.998

Need switch fluorescence ratio, item ATGGGGGGCA
0.971

Entry TGATTGGGTG has what switch fluorescence ratio?
1.01

What does the record list as switch fluorescence ratio for TAGGCATCGT ?
0.969

For the sequence AGGCGACTAT , what switch fluorescence ratio is on record?
1

I am curious: what switch fluorescence ratio value has been reported for TCGTTATTGT ?
1.01

Using the record for GGTTATGCAG , report its switch fluorescence ratio.
0.977

Give the measured switch fluorescence ratio of CGACTTGCGT .
1.01

switch fluorescence ratio for AATCTCCGAG ?
1.09

Endpoint output: switch fluorescence ratio of TCGCTTGCGG . Value?
1

Field request: switch fluorescence ratio | item: GGAGTGGTTG
0.999

Entry CTCATATTTA has what switch fluorescence ratio?
1.01

Looking for the measured switch fluorescence ratio of ATTCGAGGTT , can you help?
0.987

Find the recorded switch fluorescence ratio belonging to ACATGATCTC and report it.
0.993

What value of measured switch fluorescence ratio is listed for GCTGTTCCTC ?
1.07

# get_value(readout='switch fluorescence ratio', item= GGGGTAAACA )
0.99

Report switch fluorescence ratio for GGGAGGGACT please.
1.03

# switch fluorescence ratio lookup, item AAAGATGAAT
1.04

Entry TAATGACCAA has what switch fluorescence ratio?
1.02

# switch fluorescence ratio lookup, item TGAAACTTGA
1.04

For the sequence shown here, CGCATGGGCC , give the reported switch fluorescence ratio.
1.4

// query switch fluorescence ratio value for entry GGGTGGGCGG
0.974

Returns the measured switch fluorescence ratio for the input sequence. Input: ATAGGGGTTC
0.994

// lookup switch fluorescence ratio for AGGGAATCGT
0.995

Field request: switch fluorescence ratio | item: TTGACGGGCT
1.05

switch fluorescence ratio for TACAGTTGGC ?
1.03

What does the data say about its switch fluorescence ratio? Entry: TCTATTGGA
0.995

switch fluorescence ratio lookup needed for TGAGGGAGTG , thanks.
0.996

Entry TTGGCTTAGT has what switch fluorescence ratio?
0.991

Please give the measured switch fluorescence ratio for this sequence: CGAGGCGCG
0.954
